Each item that follows carries a reported combination Emax.
Test system: KYSE-450 (Esophageal Squamous Cell Carcinoma)
experiment_description: combination Emax (second highest fraction inhibited in the dose matrix, 72 h); higher = more inhibition; extreme values may be limits of the assay
measured_property: combination Emax

[[record]]
compound = "COc1cccc(OCCCN)c1-c1cc(Nc2cnc(C#N)cn2)n[nH]1 [Prexasertib] + CN(C)CCCOc1ccc(-c2ccc3ncc4c(c3c2)n(C2CCOCC2)c(=O)n4C)cn1 [AZD0156] (first compound max 1 µM, 7x7, partner max 1 µM)"
measured_target = "KYSE-450 (Esophageal Squamous Cell Carcinoma)"
experimental_value = 0.615

[[record]]
compound = "CC1(C)CCC(CN2CCN(c3ccc(C(=O)NS(=O)(=O)c4ccc(NCC5CCOCC5)c([N+](=O)[O-])c4)c(Oc4cnc5[nH]ccc5c4)c3)CC2)=C(c2ccc(Cl)cc2)C1 [Venetoclax] + CCN(CCO)CCCOc1ccc2c(Nc3cc(CC(=O)Nc4cccc(F)c4)[nH]n3)ncnc2c1 [AZD2811] (first compound max 1 µM, 7x7, partner max 1 µM)"
measured_target = "KYSE-450 (Esophageal Squamous Cell Carcinoma)"
experimental_value = 0.27

[[record]]
compound = "Cc1cc2ncnn2cc1Nc1ncc2c(n1)n(C1CCOCC1)c(=O)n2C [AZD7648] + CN(C)CCCOc1ccc(-c2ccc3ncc4c(c3c2)n(C2CCOCC2)c(=O)n4C)cn1 [AZD0156] (first compound max 10 µM, 7x7, partner max 1 µM)"
measured_target = "KYSE-450 (Esophageal Squamous Cell Carcinoma)"
experimental_value = 0.252

[[record]]
compound = "Cc1cc2ncnn2cc1Nc1ncc2c(n1)n(C1CCOCC1)c(=O)n2C [AZD7648] + C[C@@H]1COCCN1C2=NC(=NC(=C2)C3(CC3)[S@](=N)(=O)C)C4=C5C=CNC5=NC=C4 [AZD6738] (first compound max 10 µM, 7x7, partner max 10 µM)"
measured_target = "KYSE-450 (Esophageal Squamous Cell Carcinoma)"
experimental_value = 0.593

[[record]]
compound = "C=CCn1c(=O)c2cnc(Nc3ccc(N4CCN(C)CC4)cc3)nc2n1-c1cccc(C(C)(C)O)n1 [AZD1775] + C1CN(CCC1(C(=O)N[C@@H](CCO)C2=CC=C(C=C2)Cl)N)C3=NC=NC4=C3C=CN4 [Capivasertib] (first compound max 3 µM, partner max 3 µM)"
measured_target = "KYSE-450 (Esophageal Squamous Cell Carcinoma)"
experimental_value = 0.843

[[record]]
compound = "N#Cc1cnc(Nc2cc(NC[C@H]3CNCCO3)c(C(F)(F)F)cn2)cn1 [SRA737] + CCc1c2c(nc3ccc(O)cc13)-c1cc3c(c(=O)n1C2)COC(=O)[C@]3(O)CC [SN-38] (first compound max 10 µM, 7x7, partner max 0.3 µM)"
measured_target = "KYSE-450 (Esophageal Squamous Cell Carcinoma)"
experimental_value = 0.94

[[record]]
compound = "Cc1c2c(nn1C)CSCc1cc(n(C)n1)CSc1cc(c3ccccc3c1)OCCCc1c(C(=O)O)n(C)c3c-2c(Cl)ccc13 [AZD5991] + CS(=O)(=O)CCNCc1ccc(-c2ccc3ncnc(Nc4ccc(OCc5cccc(F)c5)c(Cl)c4)c3c2)o1 [Lapatinib] (first compound max 1 µM, 7x7, partner max 10 µM)"
measured_target = "KYSE-450 (Esophageal Squamous Cell Carcinoma)"
experimental_value = 0.541


====

Test system: OE19 (Esophageal Adenocarcinoma)
experiment_description: combination Emax (second highest fraction inhibited in the dose matrix, 72 h); higher = more inhibition; extreme values may be limits of the assay
Quick rule: combination Emax of at least 0.6 means Satisfied, below that means Not satisfied.

[[record]]
compound = "Cc1c2c(nn1C)CSCc1cc(n(C)n1)CSc1cc(c3ccccc3c1)OCCCc1c(C(=O)O)n(C)c3c-2c(Cl)ccc13 [AZD5991] + Cn1cnc2c(F)c(Nc3ccc(Br)cc3Cl)c(C(=O)NOCCO)cc21 [Selumetinib] (first compound max 1 µM, 7x7, partner max 3 µM)"
group_label = "Not satisfied"

[[record]]
compound = "Cc1c2c(nn1C)CSCc1cc(n(C)n1)CSc1cc(c3ccccc3c1)OCCCc1c(C(=O)O)n(C)c3c-2c(Cl)ccc13 [AZD5991] + C=CCn1c(=O)c2cnc(Nc3ccc(N4CCN(C)CC4)cc3)nc2n1-c1cccc(C(C)(C)O)n1 [AZD1775] (first compound max 1 µM, partner max 1 µM)"
group_label = "Satisfied"

[[record]]
compound = "CCc1c2c(nc3ccc(O)cc13)-c1cc3c(c(=O)n1C2)COC(=O)[C@]3(O)CC [SN-38] + O=C(c1cc(Cc2n[nH]c(=O)c3ccccc23)ccc1F)N1CCN(C(=O)C2CC2)CC1 [Olaparib] (first compound max 0.3 µM, 7x7, partner max 10 µM)"
group_label = "Not satisfied"

[[record]]
compound = "NC1(C(=O)N[C@@H](CCO)c2ccc(Cl)cc2)CCN(c2ncnc3[nH]ccc23)CC1 [Capivasertib] + CC(=O)c1c(C)c2cnc(Nc3ccc(N4CCNCC4)cn3)nc2n(C2CCCC2)c1=O [Palbociclib] (first compound max 10 µM, 7x7, partner max 10 µM)"
group_label = "Not satisfied"

[[record]]
compound = "CC1(C)CCC(CN2CCN(c3ccc(C(=O)NS(=O)(=O)c4ccc(NCC5CCOCC5)c([N+](=O)[O-])c4)c(Oc4cnc5[nH]ccc5c4)c3)CC2)=C(c2ccc(Cl)cc2)C1 [Venetoclax] + COc1cc(Nc2ncc3c(n2)-c2ccc(Cl)cc2C(c2c(F)cccc2OC)=NC3)ccc1C(=O)O [Alisertib] (first compound max 1 µM, 7x7, partner max 10 µM)"
group_label = "Satisfied"

[[record]]
compound = "CN(CCO)CC[C@H](CSc1ccccc1)Nc1ccc(S(=O)(=O)NC(=O)c2ccc(N3CCC([C@@H](O)c4ccccc4-c4ccc(Cl)cc4)CC3)cc2)cc1S(=O)(=O)C(F)(F)F [AZD4320] + Cn1cnc2c(F)c(Nc3ccc(Br)cc3Cl)c(C(=O)NOCCO)cc21 [Selumetinib] (first compound max 1 µM, 7x7, partner max 3 µM)"
group_label = "Not satisfied"

[[record]]
compound = "C=CCn1c(=O)c2cnc(Nc3ccc(N4CCN(C)CC4)cc3)nc2n1-c1cccc(C(C)(C)O)n1 [AZD1775] + O=C(c1cc(Cc2n[nH]c(=O)c3ccccc23)ccc1F)N1CCN(C(=O)C2CC2)CC1 [Olaparib] (first compound max 1 µM, partner max 10 µM)"
group_label = "Not satisfied"

[[record]]
compound = "COc1nnc2ccc(N3CCC(c4ccc(OCCN5CCN(C)C(=O)[C@H]5C)cc4)CC3)nn12 [AZD5153] + CN(CC[C@H](CSC1=CC=CC=C1)NC2=C(C=C(C=C2)S(=O)(=O)NC(=O)C3=CC=C(C=C3)N4CCC(CC4)[C@H](C5=CC=CC=C5C6=CC=C(C=C6)Cl)O)S(=O)(=O)C(F)(F)F)CCO [AZD4320] (first compound max 1 µM, 7x7, partner max 1 µM)"
group_label = "Not satisfied"

[[record]]
compound = "COc1cccc(OCCCN)c1-c1cc(Nc2cnc(C#N)cn2)n[nH]1 [Prexasertib] + Cc1cc2ncnn2cc1Nc1ncc2c(n1)n(C1CCOCC1)c(=O)n2C [AZD7648] (first compound max 1 µM, 7x7, partner max 10 µM)"
group_label = "Satisfied"

[[record]]
compound = "CC(=O)c1c(C)c2cnc(Nc3ccc(N4CCNCC4)cn3)nc2n(C2CCCC2)c1=O [Palbociclib] + Cc1c2c(nn1C)CSCc1cc(n(C)n1)CSc1cc(c3ccccc3c1)OCCCc1c(C(=O)O)n(C)c3c-2c(Cl)ccc13 [AZD5991] (first compound max 10 µM, 7x7, partner max 1 µM)"
group_label = "Satisfied"

[[record]]
compound = "COc1nnc2ccc(N3CCC(c4ccc(OCCN5CCN(C)C(=O)[C@H]5C)cc4)CC3)nn12 [AZD5153] + Cn1cnc2c(F)c(Nc3ccc(Br)cc3Cl)c(C(=O)NOCCO)cc21 [Selumetinib] (first compound max 1 µM, 7x7, partner max 10 µM)"
group_label = "Satisfied"

[[record]]
compound = "NC1(C(=O)N[C@@H](CCO)c2ccc(Cl)cc2)CCN(c2ncnc3[nH]ccc23)CC1 [Capivasertib] + Cn1cnc2c(F)c(Nc3ccc(Br)cc3Cl)c(C(=O)NOCCO)cc21 [Selumetinib] (first compound max 10 µM, 7x7, partner max 10 µM)"
group_label = "Not satisfied"


====

Tested on: SW13 (Other Solid Carcinomas);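 further: after 72 h of two-drug dosing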
experiment_description: Bliss excess, mean over the matrix (fraction); higher = more synergy
Measured Bliss excess of individual entries
measured_property: Bliss excess

[[record]]
molecule = "NC1(C(=O)N[C@@H](CCO)c2ccc(Cl)cc2)CCN(c2ncnc3[nH]ccc23)CC1 [Capivasertib] + CC(C)n1c(=O)n(C)c2cnc3cc(F)c(-c4ccc(OCCCN5CCCCC5)nc4)cc3c21 [AZD1390] (first compound max 10 µM, 7x7, partner max 0.3 µM)"
measured_target = "SW13 (Other Solid Carcinomas)"
measured_property = "Bliss excess"
experimental_value = 0.0127

[[record]]
molecule = "C[C@@H](c1ccc2nccn2c1)n1nnc2ncc(-c3cnn(C)c3)nc21 [Savolitinib] + Cc1c2c(nn1C)CSCc1cc(n(C)n1)CSc1cc(c3ccccc3c1)OCCCc1c(C(=O)O)n(C)c3c-2c(Cl)ccc13 [AZD5991] (first compound max 1 µM, 7x7, partner max 1 µM)"
measured_target = "SW13 (Other Solid Carcinomas)"
measured_property = "Bliss excess"
experimental_value = -0.0541

